Value source: ChEMBL document CHEMBL6083268

# test.description: Half life in Wistar rat at 1 mg/kg, po by LC-MS/MS analysis
# Type: ADME, organism-based
# assay.context: in vivo
readout.kind: half-life (h)

[
  {
    "compound": "CCC(NC(=O)c1cn(-c2c(F)cc(F)cc2F)c2nc(N3C[C@@H](O)[C@H](O)C3)c(F)cc2c1=O)C(F)(F)C(F)(F)F (single isomer, unassigned; diastereomer 1)",
    "readout.kind": "half-life",
    "output.unit": "h",
    "experimental.value": 4.2
  }
]

====

# study.system: Muscarinic acetylcholine receptor M2 (Homo sapiens)
# Sequence (P08172 whole entry): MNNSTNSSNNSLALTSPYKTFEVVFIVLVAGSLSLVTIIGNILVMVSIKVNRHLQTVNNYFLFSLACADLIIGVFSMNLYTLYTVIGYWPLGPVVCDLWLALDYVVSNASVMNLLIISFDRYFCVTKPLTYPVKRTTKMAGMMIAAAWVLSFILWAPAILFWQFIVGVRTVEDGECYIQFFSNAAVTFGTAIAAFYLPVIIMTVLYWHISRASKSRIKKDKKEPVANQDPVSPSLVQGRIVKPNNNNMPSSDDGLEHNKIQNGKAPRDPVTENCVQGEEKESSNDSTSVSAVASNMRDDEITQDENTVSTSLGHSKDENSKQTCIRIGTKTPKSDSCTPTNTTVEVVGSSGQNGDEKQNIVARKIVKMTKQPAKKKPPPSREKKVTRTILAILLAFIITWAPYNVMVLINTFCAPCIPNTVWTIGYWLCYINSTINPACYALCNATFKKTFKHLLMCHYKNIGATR
pEC50: −log10 of the molar value.

[
  {
    "smi": "COc1nc2sc(C(=O)NC3CC3)c(N)c2c(C)c1Cl",
    "pEC50": 5.62
  }
]

====

# test.description: Efflux ratio of apparent permeability across basal to apical membrane over apical to basal membrane in human Caco-2 cells at 2 uM measured after 2 hrs by LC-MS/MS analysis
Reported efflux ratio at 2 h, 2 µM values are given for each entry in this list.

[
  {
    "smi": "O=C(N[C@@H](C1CC1)C(F)(F)F)c1cn(-c2c(F)cc(F)cc2F)c2nc(N3C[C@@H](O)[C@H](O)C3)ccc2c1=O",
    "efflux ratio at 2 h, 2 µM": 8
  },
  {
    "smi": "CC[C@@H](NC(=O)c1cn(-c2c(F)cc(F)cc2F)c2nc(N3C[C@@H](O)CC3=O)ccc2c1=O)C(F)(F)F",
    "efflux ratio at 2 h, 2 µM": 0.6
  },
  {
    "smi": "CC[C@@H](NC(=O)c1cn(-c2c(F)cccc2F)c2nc(N3C[C@@H](O)CC3=O)ccc2c1=O)C(F)(F)F",
    "efflux ratio at 2 h, 2 µM": 0.8
  },
  {
    "smi": "CC[C@H](NC(=O)c1cn(-c2c(F)cc(F)cc2F)c2nc(N3C[C@@H](O)CC3=O)ccc2c1=O)C(F)(F)F",
    "efflux ratio at 2 h, 2 µM": 0.6
  },
  {
    "smi": "CC[C@@H](NC(=O)c1cn(-c2ccc(F)cc2F)c2nc(N3C[C@@H](O)CC3=O)ccc2c1=O)C(F)(F)F",
    "efflux ratio at 2 h, 2 µM": 0.9
  }
]

====

# test.description: Solubility of the compound in PBS buffer at pH 6.5 measured after 24 hrs by LC-MS/MS analysis
# Assay type: physicochemical
Reported solubility at 24 h values are given for each entry in this list.
readout.kind: solubility at 24 h (µg/mL)

[
  {
    "compound": "CC[C@@H](NC(=O)c1cn(-c2c(F)cc(F)cc2F)c2nc(N3C[C@@H](O)CC3=O)ccc2c1=O)C(F)(F)F",
    "readout.kind": "solubility at 24 h",
    "comparison.symbol": "=",
    "experimental.value": 2.2
  },
  {
    "compound": "O=C(NC1(C(F)(F)F)CCC1)c1cn(-c2c(F)cc(F)cc2F)c2nc(N3C[C@@H](O)[C@H](O)C3)ccc2c1=O",
    "readout.kind": "solubility at 24 h",
    "comparison.symbol": "=",
    "experimental.value": 0.9
  },
  {
    "compound": "CCC(NC(=O)c1cn(-c2c(F)cc(F)cc2F)c2nc(N3C[C@@H](O)[C@H](O)C3)c(F)cc2c1=O)C(F)(F)C(F)(F)F (single isomer, unassigned; diastereomer 1)",
    "readout.kind": "solubility at 24 h",
    "comparison.symbol": "=",
    "experimental.value": 11.2
  },
  {
    "compound": "CC(C)(C)[C@H](NC(=O)c1cn(-c2c(F)cc(F)cc2F)c2nc(N3C[C@@H](O)[C@H](O)C3)ccc2c1=O)C(F)(F)F",
    "readout.kind": "solubility at 24 h",
    "comparison.symbol": "=",
    "experimental.value": 1.4
  },
  {
    "compound": "CC[C@H](NC(=O)c1cn(-c2ncc(F)cc2F)c2nc(N3C[C@@H](O)CC3=O)ccc2c1=O)C(F)(F)F",
    "readout.kind": "solubility at 24 h",
    "comparison.symbol": "=",
    "experimental.value": 1.8
  },
  {
    "compound": "CC[C@@H](NC(=O)c1cn(-c2ccccc2Cl)c2nc(N3C[C@@H](O)CC3=O)ccc2c1=O)C(F)(F)F",
    "readout.kind": "solubility at 24 h",
    "comparison.symbol": "=",
    "experimental.value": 0.3
  },
  {
    "compound": "CC[C@@H](NC(=O)c1cn(-c2c(Cl)cc(F)cc2Cl)c2nc(N3C[C@@H](O)CC3=O)ccc2c1=O)C(F)(F)F",
    "readout.kind": "solubility at 24 h",
    "comparison.symbol": "<",
    "experimental.value": 0.1
  },
  {
    "compound": "CC(C)(C)C(NC(=O)c1cn(-c2c(F)cc(F)cc2F)c2nc(N3C[C@@H](O)[C@H](O)C3)c(F)cc2c1=O)C(F)(F)C(F)(F)F (single isomer, unassigned; diastereomer 2)",
    "readout.kind": "solubility at 24 h",
    "comparison.symbol": "=",
    "experimental.value": 0.4
  },
  {
    "compound": "CC[C@H](NC(=O)c1cn(-c2c(F)cccc2F)c2nc(N3C[C@@H](O)CC3=O)ccc2c1=O)C(F)(F)F",
    "readout.kind": "solubility at 24 h",
    "comparison.symbol": "=",
    "experimental.value": 1.5
  },
  {
    "compound": "CC(NC(=O)c1cn(-c2c(F)cc(F)cc2F)c2nc(N3C[C@@H](O)[C@H](O)C3)ccc2c1=O)C(F)(F)C(F)(F)F (single isomer, unassigned; diastereomer 1)",
    "readout.kind": "solubility at 24 h",
    "comparison.symbol": "=",
    "experimental.value": 54.7
  },
  {
    "compound": "CC[C@H](NC(=O)c1cn(-c2c(F)cc(F)cc2F)c2nc(N3C[C@@H](O)[C@H](O)C3)ccc2c1=O)C(F)(F)F",
    "readout.kind": "solubility at 24 h",
    "comparison.symbol": "=",
    "experimental.value": 13
  },
  {
    "compound": "CCC(NC(=O)c1cn(-c2c(F)cc(F)cc2F)c2nc(N3C[C@@H](O)[C@H](O)C3)ccc2c1=O)C(F)(F)C(F)(F)F (single isomer, unassigned; diastereomer 1)",
    "readout.kind": "solubility at 24 h",
    "comparison.symbol": "=",
    "experimental.value": 62
  }
]
